src = patent US10590153B2

experiment: Drying behaviour of crystallisates in dependence on residual moisture and product purity (tempering in sealed vials, visual points classification); format: physicochemical; set-up: key: 5 points=sample unchanged; 4 points=sample compacted/started to dissolve; 3 points=sample visibly started to dissolve; 2 points=sample cloudy highly viscous solution; 1 point=sample dissolved to clear solution; details: Temperature 60 °C, test duration 24 h, sealed vial, shaken
MEASURED ATTRIBUTE: Visual classification at the end of the tempering step (points system)
Please give the numeric answer without any surrounding text.

Query: Value lookup for Visual classification at the end of the tempering step (points system); key = O=P(O)(O)CN(CCN(CP(=O)(O)O)CP(=O)(O)O)CCN(CP(=O)(O)O)CP(=O)(O)O [unwashed quality 51 [% by mass] residual moisture]
Result: 2

Query: Report Visual classification at the end of the tempering step (points system) for O=P(O)(O)CN(CCN(CP(=O)(O)O)CP(=O)(O)O)CCN(CP(=O)(O)O)CP(=O)(O)O [unwashed quality 19 [% by mass] residual moisture] please.
Result: 4

Query: Quick one: Visual classification at the end of the tempering step (points system) for O=P(O)(O)CN(CCN(CP(=O)(O)O)CP(=O)(O)O)CCN(CP(=O)(O)O)CP(=O)(O)O [unwashed quality 31 [% by mass] residual moisture] ?
Result: 3

Query: Looking for the measured Visual classification at the end of the tempering step (points system) of O=P(O)(O)CN(CCN(CP(=O)(O)O)CP(=O)(O)O)CCN(CP(=O)(O)O)CP(=O)(O)O [unwashed quality 24 [% by mass] residual moisture] , can you help?
Result: 3

Query: So what does the record say about Visual classification at the end of the tempering step (points system) for O=P(O)(O)CN(CCN(CP(=O)(O)O)CP(=O)(O)O)CCN(CP(=O)(O)O)CP(=O)(O)O [unwashed quality 36 [% by mass] residual moisture] ?
Result: 3

* * *

Experiment: Drying behaviour of crystallisates in dependence on residual moisture and product purity (tempering in sealed vials, visual points classification)
Format: physicochemical
Design: key: 5 points=sample unchanged; 4 points=sample compacted/started to dissolve; 3 points=sample visibly started to dissolve; 2 points=sample cloudy highly viscous solution; 1 point=sample dissolved to clear solution
Conditions: Temperature 65 °C, test duration 5 h, sealed vial, shaken
Source text: This dependency is shown by the following example for determining the drying behaviour of crystallisates in dependence on residual moisture and product purity. A DTPMP solid isolated by recrystallisation is characterised by residues of adhering mother liquor via the quality parameters listed in the following table. […]
MEASURED ATTRIBUTE: Visual classification at the end of the tempering step (points system)

Some compounds with recorded Visual classification at the end of the tempering step (points system):
• O=P(O)(O)CN(CCN(CP(=O)(O)O)CP(=O)(O)O)CCN(CP(=O)(O)O)CP(=O)(O)O [unwashed quality 47 [% by mass] residual moisture] = 1
• O=P(O)(O)CN(CCN(CP(=O)(O)O)CP(=O)(O)O)CCN(CP(=O)(O)O)CP(=O)(O)O [unwashed quality 31 [% by mass] residual moisture] = 1
• O=P(O)(O)CN(CCN(CP(=O)(O)O)CP(=O)(O)O)CCN(CP(=O)(O)O)CP(=O)(O)O [unwashed quality 40 [% by mass] residual moisture] = 1

Query: Give the measured Visual classification at the end of the tempering step (points system) of O=P(O)(O)CN(CCN(CP(=O)(O)O)CP(=O)(O)O)CCN(CP(=O)(O)O)CP(=O)(O)O [unwashed quality 36 [% by mass] residual moisture] .
Result: 1

Query: Given the entry O=P(O)(O)CN(CCN(CP(=O)(O)O)CP(=O)(O)O)CCN(CP(=O)(O)O)CP(=O)(O)O [unwashed quality 51 [% by mass] residual moisture] , report its measured Visual classification at the end of the tempering step (points system).
Result: 1

Query: Report Visual classification at the end of the tempering step (points system) for O=P(O)(O)CN(CCN(CP(=O)(O)O)CP(=O)(O)O)CCN(CP(=O)(O)O)CP(=O)(O)O [washed quality 11 [% by mass] residual moisture] please.
Result: 5

Query: // Visual classification at the end of the tempering step (points system) lookup, key: O=P(O)(O)CN(CCN(CP(=O)(O)O)CP(=O)(O)O)CCN(CP(=O)(O)O)CP(=O)(O)O [unwashed quality 24 [% by mass] residual moisture]
Result: 2

Query: Fill in: Visual classification at the end of the tempering step (points system) of O=P(O)(O)CN(CCN(CP(=O)(O)O)CP(=O)(O)O)CCN(CP(=O)(O)O)CP(=O)(O)O [unwashed quality 19 [% by mass] residual moisture] is ___
Result: 2

* * *

assay: Bulk density of the samples used for the hygroscopicity test; format: physicochemical
MEASURED ATTRIBUTE: Bulk density (g/mL)
Provide only the numeric value, understood in g/mL.

- O=P(O)(O)CN(CCN(CP(=O)(O)O)CP(=O)(O)O)CCN(CP(=O)(O)O)CP(=O)(O)O [Crystal form α, purified quality]: 0.36
- O=P(O)(O)CN(CCN(CP(=O)(O)O)CP(=O)(O)O)CCN(CP(=O)(O)O)CP(=O)(O)O [Crystal form γ, purified quality]: 0.59
- O=P(O)(O)CN(CCN(CP(=O)(O)O)CP(=O)(O)O)CCN(CP(=O)(O)O)CP(=O)(O)O [amorphous powder from spray drying of an unpurified DTPMP sy] [reference compound]: 0.27
- O=P(O)(O)CN(CCN(CP(=O)(O)O)CP(=O)(O)O)CCN(CP(=O)(O)O)CP(=O)(O)O [Crystal form β, purified quality]: 0.49

Please look at the following compound next.
Query: Give its Bulk density value. Item: O=P(O)(O)CN(CCN(CP(=O)(O)O)CP(=O)(O)O)CCN(CP(=O)(O)O)CP(=O)(O)O [amorphous powder from spray drying of a DTPMP acid purified ] [reference compound]
Result: 0.27

* * *

This section presents compounds with their documented Visual classification at the end of the tempering step (points system) values.
assay: Drying behaviour of crystallisates in dependence on residual moisture and product purity (tempering in sealed vials, visual points classification); assay type: physicochemical; parameters: key: 5 points=sample unchanged; 4 points=sample compacted/started to dissolve; 3 points=sample visibly started to dissolve; 2 points=sample cloudy highly viscous solution; 1 point=sample dissolved to clear solution; conditions: Temperature 45 °C, test duration 24 h, sealed vial, shaken
// response body must contain only the number

Please review the following examples before continuing.
* O=P(O)(O)CN(CCN(CP(=O)(O)O)CP(=O)(O)O)CCN(CP(=O)(O)O)CP(=O)(O)O [unwashed quality 36 [% by mass] residual moisture] | 5
* O=P(O)(O)CN(CCN(CP(=O)(O)O)CP(=O)(O)O)CCN(CP(=O)(O)O)CP(=O)(O)O [unwashed quality 40 [% by mass] residual moisture] | 5

From here, focus on the item given below.
Query: Requested field: Visual classification at the end of the tempering step (points system). Item: O=P(O)(O)CN(CCN(CP(=O)(O)O)CP(=O)(O)O)CCN(CP(=O)(O)O)CP(=O)(O)O [unwashed quality 19 [% by mass] residual moisture]
Result: 5

* * *

The entries below come with measured Visual classification at the end of the tempering step (points system) values attached.
Assay: Drying behaviour of crystallisates in dependence on residual moisture and product purity (tempering in sealed vials, visual points classification)
Format: physicochemical
Parameters: key: 5 points=sample unchanged; 4 points=sample compacted/started to dissolve; 3 points=sample visibly started to dissolve; 2 points=sample cloudy highly viscous solution; 1 point=sample dissolved to clear solution
Conditions: Temperature 90 °C, test duration 5 h, sealed vial, shaken
Excerpt: This dependency is shown by the following example for determining the drying behaviour of crystallisates in dependence on residual moisture and product purity. A DTPMP solid isolated by recrystallisation is characterised by residues of adhering mother liquor via the quality parameters listed in the following table. […]
Reply: number alone, nothing else.

• O=P(O)(O)CN(CCN(CP(=O)(O)O)CP(=O)(O)O)CCN(CP(=O)(O)O)CP(=O)(O)O [unwashed quality 40 [% by mass] residual moisture] = 1

Query: Look at this molecule and give its reported Visual classification at the end of the tempering step (points system). O=P(O)(O)CN(CCN(CP(=O)(O)O)CP(=O)(O)O)CCN(CP(=O)(O)O)CP(=O)(O)O [washed quality 53 [% by mass] residual moisture]
Result: 1

Query: Form field: reported Visual classification at the end of the tempering step (points system) of O=P(O)(O)CN(CCN(CP(=O)(O)O)CP(=O)(O)O)CCN(CP(=O)(O)O)CP(=O)(O)O [unwashed quality 19 [% by mass] residual moisture]
Result: 2

Query: What measured Visual classification at the end of the tempering step (points system) goes with O=P(O)(O)CN(CCN(CP(=O)(O)O)CP(=O)(O)O)CCN(CP(=O)(O)O)CP(=O)(O)O [unwashed quality 31 [% by mass] residual moisture] ?
Result: 1

Query: I have this molecule here, O=P(O)(O)CN(CCN(CP(=O)(O)O)CP(=O)(O)O)CCN(CP(=O)(O)O)CP(=O)(O)O [washed quality 11 [% by mass] residual moisture] , and I need its recorded Visual classification at the end of the tempering step (points system).
Result: 5

Query: Sample O=P(O)(O)CN(CCN(CP(=O)(O)O)CP(=O)(O)O)CCN(CP(=O)(O)O)CP(=O)(O)O [unwashed quality 24 [% by mass] residual moisture] — what was its Visual classification at the end of the tempering step (points system)?
Result: 1
